Entries and their IC50 values follow.
System Name: human plasma protein factor Xa (Homo sapiens, UniProt P00742)
Construct: measure proteolytic activity of the enzyme (factor Xa)
Sequence (P00742 235-488 limits assumed): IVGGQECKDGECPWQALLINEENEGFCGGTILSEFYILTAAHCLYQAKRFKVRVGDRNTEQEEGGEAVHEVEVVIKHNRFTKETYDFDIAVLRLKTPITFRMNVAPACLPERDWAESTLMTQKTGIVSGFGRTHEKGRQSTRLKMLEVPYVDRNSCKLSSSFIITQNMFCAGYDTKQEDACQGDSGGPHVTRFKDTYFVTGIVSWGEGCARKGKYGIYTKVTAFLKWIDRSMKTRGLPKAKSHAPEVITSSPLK
Sequence (P00742 41-179 partner limits assumed): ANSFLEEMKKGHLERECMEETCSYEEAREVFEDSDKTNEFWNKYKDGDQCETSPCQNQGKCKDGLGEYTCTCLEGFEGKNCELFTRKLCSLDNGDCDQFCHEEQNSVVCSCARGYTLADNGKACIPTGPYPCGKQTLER
Measurement Protocol: Factor Xa IC50 determination: cleavage of paranitroanilide substrate S-2765 in 96-well plates
Condition Label: fXa 1 nM, S-2765 100 μM, Tris buffered saline pH 7.4, room temperature
Quantity: IC50

>>> print(df.to_string())
                                    compound  value_measured
 0  CSc1ccccc1-c1ccc(C2=NOC(CNC(=O)c3ccc(Cl)s3)C2)cc1 (stereo not shown)        ≥ 500 nM
 1  O=C(NCc1cc(-c2ccc(Nc3ccncc3)cc2)no1)c1ccc(Cl)s1        ≤ 100 nM
 2  COCCN(C)c1cc(C(=N)N2CCCC2)ccc1C1=NOC(CNC(=O)c2ccc(Cl)s2)C1 (stereo not shown)   100 to 500 nM
 3  CN(C)CCN(C)Cc1ccccc1-c1ccc(C2=NOC(CNC(=O)c3ccc(Cl)s3)C2)cc1 (stereo not shown)        ≤ 100 nM
 4  O=C(NCc1cn(-c2ccc(-n3ccccc3=O)cc2F)nn1)c1ccc(Cl)s1        ≤ 100 nM
 5  CN1CCN=C1c1ccc(-c2cc(CNC(=O)c3ccc(Cl)s3)on2)c(N(C)C)c1        ≤ 100 nM
 6  N=C(c1ccc(-c2nc(CNC(=O)c3ccc(Cl)s3)co2)cc1)N1CCCCC1        ≤ 100 nM
 7  COc1ccc(Nc2ccc(-c3cc(CNC(=O)c4ccc(Cl)s4)on3)cc2)cc1        ≥ 500 nM
 8  CC(O)CNC(=O)c1ccc(C2=NOC(CNC(=O)c3ccc(Cl)s3)C2)cc1 (stereo not shown)        ≥ 500 nM
 9  CN(Cc1cc(-c2ccc(C(N3CCC3)=[N+]3CCC3)cc2)no1)C(=O)c1ccc(Cl)s1        ≥ 500 nM
10  O=C(NCC1CC(c2ccc(Oc3ccccc3)cc2)=NO1)c1ccc(Cl)s1 (stereo not shown)        ≥ 500 nM
11  N=C(c1ccc(-c2cccc(CNC(=O)c3ccc(Cl)s3)c2)cc1)N1CCCC1        ≤ 100 nM
12  COc1ccc(CN2CCCC2)c(-c2ccc(C3=NOC(CNC(=O)c4ccc(Cl)s4)C3)cc2)c1 (stereo not shown)        ≤ 100 nM
13  CC1CCCN1C(=O)c1ccc(C2=NOC(CNC(=O)c3ccc(Cl)s3)C2)cc1 (stereo not shown)   100 to 500 nM
14  O=C(NCC1CC(c2ccc(C(=O)N3CCC3)cc2)=NO1)c1ccc(Cl)s1 (stereo not shown)        ≤ 100 nM
15  N=C(c1ccc(-n2cc(CNC(=O)c3ccc(Cl)s3)cn2)cc1)N1CCCCC1        ≤ 100 nM
